Value source: PubChem BioAssay (NCI)

System: MOLT-4 leukemia
Experiment: NCI tumour cell line growth inhibition, 48 h
Catalogue of compounds with associated TGI

COc1ccc(NC(=O)c2cc(NC(=O)/C=C/c3ccccc3)c(OC)c(OC)c2)cc1    > 100 µM
COc1cc(OC)c(Oc2cccc(OC)c2OC)c(OC)c1    > 100 µM
NCCCCN(CCCN)C(=O)OCc1ccccc1    > 100 µM

Exercise: Please look up its TGI: `N.N.NCCCCN.O=C([O-])CCl.O=C([O-])CCl.O=C([O-])CCl.O=C([O-])CCl.[Pt+4].[Pt+4]`
Solution: > 50 µM

###

Test system: COLO 205 colon
Assay: NCI tumour cell line growth inhibition, 48 h
Catalogue of compounds with associated TGI

# count of solved cases: 2
CC(=O)Nc1ccc(S(=O)(=O)/N=c2/sc(S(N)(=O)=O)nn2C)cc1    > 100 µM
Cc1cccc2c1NC(c1c(C)[nH]c3ccccc13)C2 (stereo not drawn)    > 100 µM

For the next question, use this compound.
Exercise: Please look up its TGI: `C=CCn1c(-c2ccc(N=NNc3ccc(-c4n[nH]c(=S)n4CC=C)cc3)cc2)n[nH]c1=S`
Solution: > 100 µM
